- Test system: SNB-75
- Assay details: NCI one-dose SRB assay (CNS Cancer)
- Format: cell-based, human
- Run parameters: Homo sapiens; SNB-75, 10 μM; read-out: Percentage growth inhibition (GI%)
Please enter T where inhibition at 10 µM is greater than or equal to 20%, and F where it is lower.

Recorded results for 4 compounds are shown here.
compound="COc1ccc(-c2ccc(NC(=O)Nc3ccc(Cl)cc3)c(C)n2)cc1 [Compound 8d]" answer_label=F
compound="COc1ccc(-c2ccc(NC(=O)Nc3cccc(Cl)c3)c(C)n2)cc1OC [Compound 8j]" answer_label=F
compound="COc1ccc(-c2ccc(NC(=O)Nc3cccc(C(F)(F)F)c3)c(C)n2)cc1 [Compound 8b]" answer_label=T
compound="COc1ccc(-c2ccc(NC(=O)Nc3ccc(Cl)c(C(F)(F)F)c3)c(C)n2)cc1 [Compound 8e]" answer_label=T

Prompt line: Does the compound COc1ccc(-c2ccc(NC(=O)Nc3cccc(C(F)(F)F)c3)c(C)n2)cc1OC [Compound 8i] have recorded inhibition at 10 µM that is 20% or more?
Response line: T

Prompt line: Is it the case that COc1ccc(NC(=O)Nc2ccc(-c3ccc(OC)c(OC)c3)nc2C)cc1 [Compound 8n] has inhibition at 10 µM reaching or exceeding 20%?
Response line: T

Prompt line: Given COc1cccc(NC(=O)Nc2ccc(-c3ccc(OC)c(OC)c3)nc2C)c1 [Compound 8m] , state whether its inhibition at 10 µM is at least 20%.
Response line: F

---

- Test system: TK-10
- Assay details: NCI one-dose SRB assay (Renal Cancer)
- Format: cell-based, human
- Run parameters: TK-10, 1.00E-5 Molar
# Growth Percent per record follows
Express the result in % but write the number alone.

The following molecules have reported results that may help.
given_smiles=COc1ccc(NC(=O)Nc2ccc(-c3ccc(OC)c(OC)c3)nc2C)cc1 unit_label=% observed_result=60.42
given_smiles=COc1ccc(-c2ccc(NC(=O)Nc3cccc(C(F)(F)F)c3)c(C)n2)cc1OC unit_label=% observed_result=79.75
given_smiles=COc1ccc(-c2ccc(NC(=O)Nc3cccc(C(F)(F)F)c3)c(C)n2)cc1 unit_label=% observed_result=76.66
given_smiles=COc1ccc(-c2ccc(NC(=O)Nc3ccc(Cl)cc3)c(C)n2)cc1 unit_label=% observed_result=102.41
given_smiles=COc1ccc(-c2ccc(NC(=O)Nc3ccc(Cl)c(C(F)(F)F)c3)c(C)n2)cc1 unit_label=% observed_result=65.92

Prompt line: Tell me the measured Growth Percent of "COc1cccc(NC(=O)Nc2ccc(-c3ccc(OC)c(OC)c3)nc2C)c1" , please.
Response line: 96.16

Prompt line: What measured Growth Percent goes with "COc1ccc(-c2ccc(NC(=O)Nc3cccc(Cl)c3)c(C)n2)cc1OC" ?
Response line: 99.31

---

- System: COLO 205
- Assay details: NCI one-dose SRB assay (Colon Cancer)
- Type: cell-based, human
- Run parameters: COLO 205, 1.00E-5 Molar
// returns false (0) unless Growth Percent is strictly below 90%, in which case true (1)

given_smiles=COc1ccc(-c2ccc(NC(=O)Nc3ccc(Cl)cc3)c(C)n2)cc1 system_tested="COLO 205" answer_label="false (0)"
given_smiles=COc1cccc(NC(=O)Nc2ccc(-c3ccc(OC)c(OC)c3)nc2C)c1 system_tested="COLO 205" answer_label="false (0)"
given_smiles=COc1ccc(-c2ccc(NC(=O)Nc3ccc(Cl)c(C(F)(F)F)c3)c(C)n2)cc1 system_tested="COLO 205" answer_label="true (1)"
given_smiles=COc1ccc(-c2ccc(NC(=O)Nc3cccc(C(F)(F)F)c3)c(C)n2)cc1 system_tested="COLO 205" answer_label="true (1)"

Prompt line: Determine whether this compound shows Growth Percent lower than 90% (ties excluded): "COc1ccc(-c2ccc(NC(=O)Nc3cccc(Cl)c3)c(C)n2)cc1OC"
Response line: false (0)
